Where do these numbers come from? They come from ChEMBL document CHEMBL1201862.

- Tested on: SN12C
- measurement_protocol: NCI tumour cell line growth inhibition, 48 h
Active and inactive are the calls of the source. No stated cut-off is given here; in the data, active = GI50 up to about 1.1 µM and inactive = higher.
Below, each entry is listed with its recorded GI50.

Data request: State its GI50 for this compound: "CC(C)(CN1CCOCC1)C(=O)/C=C/c1ccc(/C=C/C(=O)C(C)(C)CN2CCOCC2)cc1"
Data returned: 1.35 µM (inactive)

Data request: Return the recorded GI50 value; entry: "NC1=NS(=O)(=O)Nc2nc(-c3cccs3)[nH]c21"
Data returned: > 100 µM (inactive)

Data request: Annotate the compound CC(C)CC(NC(=O)C(Cc1ccccc1)NC(=O)[C@H]1CC[C@H](NC(=O)C(Cc2ccc(OC(C)(C)C)cc2)NC(=O)OC(C)(C)C)C1)C(N)=O (stereo partly drawn) with its measured GI50.
Data returned: 17.7 µM (inactive)
